Provenance of the data: ChEMBL document CHEMBL4371025

# protocol: Drug level in liver of Sprague-Dawley rat at 10 mg/kg, po administered as single dose via gavage measured at 12 hrs by LC-MS/MS analysis
# Type: ADME, organism-based
# applied.conditions: read-out: Drug uptake
property.measured: concentration at 12 h

The value of concentration at 12 h measured for the compound O=C(N[C@H]1CC/C(=C\c2cccc(Oc3ccc(C(F)(F)F)cn3)c2)CC1)c1cccnc1 (stereo unspecified) turned out to be 21 µM

###

# protocol: Drug level in plasma of Sprague-Dawley rat at 10 mg/kg, po administered as single dose via gavage measured at 12 hrs by LC-MS/MS analysis
# Type: ADME, organism-based
property.measured: concentration at 12 h (nM)
Give just the numeric value; nM need not be written.

The value of concentration at 12 h measured for the compound O=C(N[C@H]1CC/C(=C\c2cccc(Oc3ccc(C(F)(F)F)cn3)c2)CC1)c1cccnc1 (stereo unspecified) turned out to be 1900

###

# protocol: Ratio of AUC (0 to 48 hrs) in liver to plasma of Sprague-Dawley rat at 10 mg/kg, po administered as single dose via gavage by LC-MS/MS analysis
# Type: ADME, organism-based
# applied.conditions: liver and plasma, read-out: Ratio AUC
Kindly state Kp for each of the entries shown.
Give the figure by itself; no unit, no explanation.

The value of Kp measured for the compound O=C(N[C@H]1CC/C(=C\c2cccc(Oc3ccc(C(F)(F)F)cn3)c2)CC1)c1cccnc1 (centres undefined) turned out to be 10.5

The value of Kp measured for the compound Nc1ccc(C(=O)N[C@H]2CC/C(=C\c3cccc(Oc4ccc(C(F)(F)F)cn4)c3)CC2)cn1 (centres undefined) turned out to be 9.2

The value of Kp measured for the compound Nc1ncc(C(=O)N[C@H]2CC/C(=C\c3cccc(Oc4ccc(C(F)(F)F)cn4)c3)CC2)cn1 (centres undefined) turned out to be 4.3

The value of Kp measured for the compound Cc1cc(C(=O)N[C@H]2CC/C(=C\c3cccc(Oc4ccc(C(F)(F)F)cn4)c3)CC2)cnc1N (centres undefined) turned out to be 6.9

###

Kindly state concentration at 48 h for each of the entries shown.
# protocol: Drug level in liver of Sprague-Dawley rat at 10 mg/kg, po administered as single dose via gavage measured at 48 hrs by LC-MS/MS analysis
# Type: ADME, organism-based
# applied.conditions: read-out: Drug uptake
Give just the numeric value; µM need not be written.

The value of concentration at 48 h measured for the compound Cc1cc(C(=O)N[C@H]2CC/C(=C\c3cccc(Oc4ccc(C(F)(F)F)cn4)c3)CC2)cnc1N (stereo not drawn) turned out to be 9.1

The value of concentration at 48 h measured for the compound Nc1ccc(C(=O)N[C@H]2CC/C(=C\c3cccc(Oc4ccc(C(F)(F)F)cn4)c3)CC2)cn1 (stereo not drawn) turned out to be 16.2

The value of concentration at 48 h measured for the compound Nc1ncc(C(=O)N[C@H]2CC/C(=C\c3cccc(Oc4ccc(C(F)(F)F)cn4)c3)CC2)cn1 (stereo not drawn) turned out to be 8.9

###

Kindly state selectivity ratio for each of the entries shown.
# Test system: CYP3A4
# protocol: Selectivity ratio of IC50 for CYP3A4 in human liver microsomes using midazolam as substrate to IC50 for human transmembrane domain deficient FFAH expressed in Escherichia coli
# Assay type: toxicity
# applied.conditions: probe midazolam, read-out: Ratio IC50

The value of selectivity ratio measured for the compound Nc1ncc(C(=O)N[C@H]2CC/C(=C\c3cccc(Oc4ccc(C(F)(F)F)cn4)c3)CC2)cn1 (configuration not stated) turned out to be > 5000

The value of selectivity ratio measured for the compound Cc1cc(C(=O)N[C@H]2CC/C(=C\c3cccc(Oc4ccc(C(F)(F)F)cn4)c3)CC2)cnc1N (configuration not stated) turned out to be > 5000
